System: MCF7
Assay: NCI 60 cell line five dose, Breast Cancer
Please respond with reported TGI for every item in the list.
Number only, in µM; omit the unit.

GET /value?item= `C=C1C(=O)O[C@H]2[C@H]1CC/C(COC(=O)NCCCCCNC(=O)OC/C1=C/CC[C@@]3(C)O[C@H]3[C@H]3OC(=O)C(=C)[C@@H]3CC1)=C\CC[C@@]1(C)O[C@@H]21` &field=TGI returns 1.93

GET /value?item= `C=C1C(=O)O[C@H]2[C@H]1CC/C(COC(=O)CCC(=O)NCCCCCCCCCNC(=O)CCC(=O)OC/C1=C/CC[C@@]3(C)O[C@H]3[C@H]3OC(=O)C(=C)[C@@H]3CC1)=C\CC[C@@]1(C)O[C@@H]21` &field=TGI returns 1.85

GET /value?item= `C=C1C(=O)O[C@H]2[C@H]1CC/C(COC(=O)CCC(=O)NCCCCCCCCNC(=O)CCC(=O)OC/C1=C/CC[C@@]3(C)O[C@H]3[C@H]3OC(=O)C(=C)[C@@H]3CC1)=C\CC[C@@]1(C)O[C@@H]21` &field=TGI returns 2.47

GET /value?item= `C=C1C(=O)O[C@H]2[C@H]1CC/C(COC(=O)NCCCCNC(=O)OC/C1=C/CC[C@@]3(C)O[C@H]3[C@H]3OC(=O)C(=C)[C@@H]3CC1)=C\CC[C@@]1(C)O[C@@H]21` &field=TGI returns 1.8

====

Tested on: MALME-3M
Assay: NCI 60 cell line five dose, Melanoma
Details: read-out: LC50; MAL1ME−3M; molar
Recorded metric: CC50
For clarity, give the value followed by its unit.

GET /value?item= `C=C1C(=O)O[C@H]2[C@H]1CC/C(COC(=O)NCCCCCCCCNC(=O)OC/C1=C/CC[C@@]3(C)O[C@H]3[C@H]3OC(=O)C(=C)[C@@H]3CC1)=C\CC[C@@]1(C)O[C@@H]21` &field=CC50 returns 929 nM

====

Test system: OVCAR-5
Experiment: NCI 60 cell line five dose, Ovarian Cancer
Recorded metric: TGI (µM)
Number only, in µM; omit the unit.

GET /value?item= `C=C1C(=O)O[C@H]2[C@H]1CC/C(COC(=O)NCCCCNC(=O)OC/C1=C/CC[C@@]3(C)O[C@H]3[C@H]3OC(=O)C(=C)[C@@H]3CC1)=C\CC[C@@]1(C)O[C@@H]21` &field=TGI returns 3.69

GET /value?item= `C=C1C(=O)O[C@H]2[C@H]1CC/C(COC(=O)NCCCCCNC(=O)OC/C1=C/CC[C@@]3(C)O[C@H]3[C@H]3OC(=O)C(=C)[C@@H]3CC1)=C\CC[C@@]1(C)O[C@@H]21` &field=TGI returns 3.53

GET /value?item= `C=C1C(=O)O[C@H]2[C@H]1CC/C(COC(=O)CCC(=O)NCCCCCCCCNC(=O)CCC(=O)OC/C1=C/CC[C@@]3(C)O[C@H]3[C@H]3OC(=O)C(=C)[C@@H]3CC1)=C\CC[C@@]1(C)O[C@@H]21` &field=TGI returns 3.64

GET /value?item= `C=C1C(=O)O[C@H]2[C@H]1CC/C(COC(=O)CCC(=O)NCCCCCCCCCNC(=O)CCC(=O)OC/C1=C/CC[C@@]3(C)O[C@H]3[C@H]3OC(=O)C(=C)[C@@H]3CC1)=C\CC[C@@]1(C)O[C@@H]21` &field=TGI returns 3.47

====

Recorded metric: CC50

Lab note: molecule `C=C1C(=O)O[C@H]2[C@H]1CC/C(COC(=O)CCC(=O)NCCCCCCCCNC(=O)CCC(=O)OC/C1=C/CC[C@@]3(C)O[C@H]3[C@H]3OC(=O)C(=C)[C@@H]3CC1)=C\CC[C@@]1(C)O[C@@H]21` tested on NCI/ADR-RES; recorded CC50 was > 100 µM

Lab note: molecule `C=C1C(=O)O[C@H]2[C@H]1CC/C(COC(=O)CCC(=O)NCCCCCCCCCNC(=O)CCC(=O)OC/C1=C/CC[C@@]3(C)O[C@H]3[C@H]3OC(=O)C(=C)[C@@H]3CC1)=C\CC[C@@]1(C)O[C@@H]21` tested on NCI/ADR-RES; recorded CC50 was > 100 µM

====

Please respond with reported CC50 for every item in the list.
For clarity, give the value followed by its unit.

Lab note: compound `C=C1C(=O)O[C@H]2[C@H]1CC/C(COC(=O)CCC(=O)NCCCCCCCCNC(=O)CCC(=O)OC/C1=C/CC[C@@]3(C)O[C@H]3[C@H]3OC(=O)C(=C)[C@@H]3CC1)=C\CC[C@@]1(C)O[C@@H]21` tested on OVCAR-5; recorded CC50 was 7.31 µM

Lab note: compound `C=C1C(=O)O[C@H]2[C@H]1CC/C(COC(=O)CCC(=O)NCCCCCCCCCNC(=O)CCC(=O)OC/C1=C/CC[C@@]3(C)O[C@H]3[C@H]3OC(=O)C(=C)[C@@H]3CC1)=C\CC[C@@]1(C)O[C@@H]21` tested on OVCAR-5; recorded CC50 was 7.06 µM

====

Tested on: NCI-H460
Test: NCI 60 cell line five dose, Non-Small Cell Lung Cancer
Details: read-out: LC50, molar
Recorded metric: CC50
For clarity, give the value followed by its unit.

GET /value?item= `C=C1C(=O)O[C@H]2[C@H]1CC/C(COC(=O)NCCCCCCCCNC(=O)OC/C1=C/CC[C@@]3(C)O[C@H]3[C@H]3OC(=O)C(=C)[C@@H]3CC1)=C\CC[C@@]1(C)O[C@@H]21` &field=CC50 returns 9.02 µM

====

Please respond with reported CC50 for every item in the list.
Number only, in µM; omit the unit.

Lab note: compound `C=C1C(=O)O[C@H]2[C@H]1CC/C(COC(=O)CCC(=O)NCCCCCCCCCNC(=O)CCC(=O)OC/C1=C/CC[C@@]3(C)O[C@H]3[C@H]3OC(=O)C(=C)[C@@H]3CC1)=C\CC[C@@]1(C)O[C@@H]21` tested on MDA-MB-231/ATCC; recorded CC50 was 13.3

Lab note: compound `C=C1C(=O)O[C@H]2[C@H]1CC/C(COC(=O)CCC(=O)NCCCCCCCCNC(=O)CCC(=O)OC/C1=C/CC[C@@]3(C)O[C@H]3[C@H]3OC(=O)C(=C)[C@@H]3CC1)=C\CC[C@@]1(C)O[C@@H]21` tested on MDA-MB-231/ATCC; recorded CC50 was 9.88

====

Quick record: CC50, U251.
Number only, in µM; omit the unit.

GET /value?item= C=C1C(=O)O[C@H]2[C@H]1CC/C(COC(=O)CCC(=O)NCCCCCCCCNC(=O)CCC(=O)OC/C1=C/CC[C@@]3(C)O[C@H]3[C@H]3OC(=O)C(=C)[C@@H]3CC1)=C\CC[C@@]1(C)O[C@@H]21 [JVM 2-87] &field=CC50 returns 43

GET /value?item= C=C1C(=O)O[C@H]2[C@H]1CC/C(COC(=O)CCC(=O)NCCCCCCCCCNC(=O)CCC(=O)OC/C1=C/CC[C@@]3(C)O[C@H]3[C@H]3OC(=O)C(=C)[C@@H]3CC1)=C\CC[C@@]1(C)O[C@@H]21 [JVM 2-92] &field=CC50 returns 44.7

====

Test system: 786-0
Experiment: NCI 60 cell line five dose, Renal Cancer
Conditions: read-out: LC50
Recorded metric: CC50 (µM)
Number only, in µM; omit the unit.

GET /value?item= `C=C1C(=O)O[C@H]2[C@H]1CC/C(COC(=O)NCCCCNC(=O)OC/C1=C/CC[C@@]3(C)O[C@H]3[C@H]3OC(=O)C(=C)[C@@H]3CC1)=C\CC[C@@]1(C)O[C@@H]21` &field=CC50 returns 9.11

GET /value?item= `C=C1C(=O)O[C@H]2[C@H]1CC/C(COC(=O)NCCCCCNC(=O)OC/C1=C/CC[C@@]3(C)O[C@H]3[C@H]3OC(=O)C(=C)[C@@H]3CC1)=C\CC[C@@]1(C)O[C@@H]21` &field=CC50 returns 6.39

====

System: PC-3
Assay: NCI 60 cell line five dose, Prostate Cancer
Recorded metric: GI50
For clarity, give the value followed by its unit.

GET /value?item= `C=C1C(=O)O[C@H]2[C@H]1CC/C(COC(=O)CCC(=O)NCCCCCCCCNC(=O)CCC(=O)OC/C1=C/CC[C@@]3(C)O[C@H]3[C@H]3OC(=O)C(=C)[C@@H]3CC1)=C\CC[C@@]1(C)O[C@@H]21` &field=GI50 returns 3.64 µM

GET /value?item= `C=C1C(=O)O[C@H]2[C@H]1CC/C(COC(=O)NCCCCNC(=O)OC/C1=C/CC[C@@]3(C)O[C@H]3[C@H]3OC(=O)C(=C)[C@@H]3CC1)=C\CC[C@@]1(C)O[C@@H]21` &field=GI50 returns 2.55 µM

GET /value?item= `C=C1C(=O)O[C@H]2[C@H]1CC/C(COC(=O)CCC(=O)NCCCCCCCCCNC(=O)CCC(=O)OC/C1=C/CC[C@@]3(C)O[C@H]3[C@H]3OC(=O)C(=C)[C@@H]3CC1)=C\CC[C@@]1(C)O[C@@H]21` &field=GI50 returns 2.53 µM

GET /value?item= `C=C1C(=O)O[C@H]2[C@H]1CC/C(COC(=O)NCCCCCNC(=O)OC/C1=C/CC[C@@]3(C)O[C@H]3[C@H]3OC(=O)C(=C)[C@@H]3CC1)=C\CC[C@@]1(C)O[C@@H]21` &field=GI50 returns 3.79 µM
